Molecular target: T1, murine C4.4a on transfected CHO-S:mC4.4a cells (mouse, UniProt Q91YK8 33-343)
T1 construct: full length GPI-anchored form, stably transfected; also called Mouse C4.4a:CHO; mC4.4a: CHO
T1 sequence: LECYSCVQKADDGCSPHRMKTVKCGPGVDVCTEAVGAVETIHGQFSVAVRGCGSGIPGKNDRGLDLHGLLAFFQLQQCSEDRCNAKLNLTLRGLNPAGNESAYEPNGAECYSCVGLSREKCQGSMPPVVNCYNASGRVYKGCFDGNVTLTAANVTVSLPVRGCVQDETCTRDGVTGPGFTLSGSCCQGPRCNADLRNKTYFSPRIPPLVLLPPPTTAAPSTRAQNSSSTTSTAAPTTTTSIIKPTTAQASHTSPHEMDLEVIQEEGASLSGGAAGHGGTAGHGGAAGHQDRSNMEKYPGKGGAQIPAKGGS
Experiment: FACS titration of IgG1 on CHO-S:mC4.4a cells
pEC50: −log10 of the molar value.
Give YES when the value for pEC50 is at least 9. Give NO when it is less.

BINDER	CAT
B01-10 (antibody, human IgG1, V domains shown, tested as human IgG1) VH: EVQLLESGGGLVQPGGSLRLSCAASGFTFSSAWMSWVRQAPGKGLEWVSYISSSGSTIYYADSVKGRFTISRDNSKNTLYLQMNSLRAEDTAVYYCAREGLWAFDYWGQGTLVTVSS VL: QSVLTQPPSVSGAPGQRVTISCTGSSSNIGAGYVVHWYQQLPGTAPKLLIYDNNKRPSGVPDRFSGSKSGTSASLAISGLRSEDEADYYCAAYDDSLSGPVFGGGTKLTVLG	YES
M31-B01 (antibody, human IgG1, V domains shown, tested as human IgG1) VH: EVQLLESGGGLVQPGGSLRLSCAASGFTFSNAWMSWVRQAPGKGLEWVSYISSSGSTIYYADSVKGRFTISRDNSKNTLYLQMNSLRAEDTAVYYCAREGLWAFDYWGQGTLVTVTS VL: QSVLTQPPSASGTPGQRVTISCTGSSSNIGAGYVVHWYQQLPGTAPKLLIYDNNKRPSGVPDRFSGSKSGTSASLAISGLRSEDEADYYCAAWDDRLNGPVFGGGTKLTVLG	NO
B01-3 (antibody, human IgG1, V domains shown, tested as human IgG1; also called B01-03) VH: EVQLLESGGGLVQPGGSLRLSCAASGFTFSNAWMSWVRQAPGKGLEWVSYISSSGSTIYYADSVKGRFTISRDNSKNTLYLQMNSLRAEDTAVYYCAREGLWAFDYWGQGTLVTVSS VL: ESVLTQPPSVSGAPGQRVTISCTGSSSNIGAGYVVHWYQQLPGTAPKLLIYDNNKRPSGVPDRFSGSKSGTSASLAISGLRSEDEADYYCAAWDDRLNGPVFGGGTKLTVLG	YES
